From: paper PMC9145393

Molecular target: rhERα-LBD (Homo sapiens)
Test: LanthaScreen TR-FRET competitive binding assay
Settings: IC50 (inhibition of Fluormone tracer binding to rhERα), 10-point competition curves; Mean ± SE
Description: Next, the binding of lignan derivatives to the LBD of rhERα was analyzed by using time-resolved fluorescence resonance energy transfer (TR-FRET) competitive binding assay. […] Data are expressed as mean ± SEM for from at least three independent experiments, where each concentration is tested in triplicate.
reported.property: pIC50
pIC50 is defined as minus the log10 of a concentration measured in mol/L.

Ask: Item COc1ccc(C[C@H]2C(=O)OC[C@@H]2Cc2ccc3c(c2)OCO3)cc1OC [Compound 1, (−)-Bursehernin] has what recorded pIC50?
Result: 6.41

----------
Biological target: ERα from rat uterine cytosol (RUC) (Rattus norvegicus, UniProt P06211)
Sequence (P06211 1-600): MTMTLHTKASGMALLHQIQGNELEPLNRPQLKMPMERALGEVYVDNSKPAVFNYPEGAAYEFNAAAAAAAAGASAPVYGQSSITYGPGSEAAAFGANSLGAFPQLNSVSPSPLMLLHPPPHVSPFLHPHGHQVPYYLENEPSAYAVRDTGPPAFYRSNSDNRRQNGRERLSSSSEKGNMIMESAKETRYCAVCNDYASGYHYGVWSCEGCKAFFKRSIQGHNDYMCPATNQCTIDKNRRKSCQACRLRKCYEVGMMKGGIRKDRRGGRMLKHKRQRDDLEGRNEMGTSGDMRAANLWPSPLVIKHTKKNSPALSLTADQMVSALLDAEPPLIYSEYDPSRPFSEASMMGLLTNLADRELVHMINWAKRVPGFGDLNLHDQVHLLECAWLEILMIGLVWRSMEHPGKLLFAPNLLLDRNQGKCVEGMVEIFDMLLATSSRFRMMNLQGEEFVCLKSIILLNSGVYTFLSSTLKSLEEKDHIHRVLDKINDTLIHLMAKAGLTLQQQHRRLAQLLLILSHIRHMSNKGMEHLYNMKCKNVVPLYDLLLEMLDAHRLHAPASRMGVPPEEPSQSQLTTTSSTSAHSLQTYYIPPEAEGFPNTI
reported.property: pIC50
Units for pIC50: none; it is -log10 of a concentration expressed in mol/L.

Ask: For ERα from rat uterine cytosol (RUC) (Rattus norvegicus, UniProt P06211), provide pIC50 of COc1ccc(C[C@@H](C)[C@H](C)Cc2ccc(O)c(O)c2)cc1OC [Compound 14] please.
Result: 5.40

----------
The entries below come with measured pIC50 values attached.
biological target: rhERα-LBD (Homo sapiens, UniProt P03372); experiment: LanthaScreen TR-FRET competitive binding assay; conditions: 10-point competition curves; Mean ± SE; read-out: IC50 (inhibition of Fluormone tracer binding to rhERα)
Sequence (P03372 311-547 limits assumed): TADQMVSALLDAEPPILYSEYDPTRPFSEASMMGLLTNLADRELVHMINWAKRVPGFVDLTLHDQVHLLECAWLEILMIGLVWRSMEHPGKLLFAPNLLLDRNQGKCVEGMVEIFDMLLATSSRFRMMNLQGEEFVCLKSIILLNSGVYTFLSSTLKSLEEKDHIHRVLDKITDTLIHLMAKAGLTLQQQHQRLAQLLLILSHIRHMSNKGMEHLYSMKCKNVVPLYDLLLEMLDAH
Please note pIC50 is a logarithmic value: minus log10 of concentration in mol/L. Answer with that number alone.

Worked examples, 5 compounds total:
>>> reported("O=C1OC[C@H](Cc2ccc(O)c(O)c2)[C@H]1Cc1ccc(O)c(O)c1")
6.22
>>> reported("COc1ccc(C[C@H]2C(O)OC[C@@H]2Cc2ccc3c(c2)OCO3)cc1OC (mixture of isomers)")
5.49
>>> reported("COc1ccc(C[C@@H](CO)[C@H](CO)Cc2ccc3c(c2)OCO3)cc1OC")
5.40
>>> reported("COc1ccc(C[C@H]2COC[C@@H]2Cc2ccc(O)c(O)c2)cc1OC")
6.30
>>> reported("COc1ccc(C[C@@H](C)[C@H](C)Cc2ccc3c(c2)OCO3)cc1OC")
5.30

Moving on to another compound below.
Ask: // lookup pIC50 for COc1ccc(C[C@@H](C)[C@H](C)Cc2ccc(O)c(O)c2)cc1OC
Result: 6.80
